system: HeLa cells; assay: Luciferase Protein Expression Assay in HeLa Cells; type: cell-based, Human; conditions: LNPs encapsulating Luciferase mRNA, 25 ng per well, N=4 wells; 5 h serum-free then 24 h; ONE-Glo
Structures can show the parent of a compound that is named as a salt.
Entries and their measured Average Relative Light Units ± Standard Deviation follow.
Write down the numeric answer in Relative Light Units and omit the unit.

compound | experimental.value
CC(C)CCC[C@@H](C)[C@H]1CC[C@H]2[C@@H]3CC=C4C[C@@H](OC(=O)N(CCCCCCN)CCCCCCN)CC[C@]4(C)[C@H]3CC[C@]12C [SA81, dihydrochloride] | 19619.8
CC[C@H](CC[C@@H](C)[C@H]1CC[C@H]2[C@@H]3CC=C4C[C@@H](OC(=O)N(CCCN)CCCCCCCCCCN)CC[C@]4(C)[C@H]3CC[C@]12C)C(C)C [SA96, dihydrochloride] | 17172.8
CC(C)CCC[C@@H](C)[C@H]1CC[C@H]2[C@@H]3CC=C4C[C@@H](OC(=O)N(CCCN)CCCCCCCCCCN)CC[C@]4(C)[C@H]3CC[C@]12C [SA95, dihydrochloride] | 22952.2
CC(C)CCC[C@@H](C)[C@H]1CC[C@H]2[C@@H]3CC=C4C[C@@H](OC(=O)CCC(=O)N(CCCN)CCCCCCCCN)CC[C@]4(C)[C@H]3CC[C@]12C [SA72, dihydrochloride] | 30826.5

Now turn to the next compound.
Dear colleague, please send me the reported Average Relative Light Units ± Standard Deviation for CC(C)CCC[C@@H](C)[C@H]1CC[C@H]2[C@@H]3CC=C4C[C@@H](OC(=O)CN(CCCCCCCCN)C(=O)[C@@H](N)CCCN)CC[C@]4(C)[C@H]3CC[C@]12C.Cl.Cl.Cl when you can. 144.8

====

experiment: Encapsulation of mRNA nanoparticles with lipid amines using Ribogreen assay; type: physicochemical; details: CFTR mRNA nanoparticle with lipid amine
Counter-ions that a name gives are not always drawn.
Entries and their measured % Encapsulation (Ribogreen) follow.
Write down the numeric answer in % and omit the unit.

Illustrative cases are given below, each with its answer.
compound | % Encapsulation (Ribogreen) (%)
CC(C)CCC[C@@H](C)[C@H]1CC[C@H]2[C@@H]3CC=C4C[C@@H](OC(=O)N(CCCCCCCC(C)(C)N)CCC(C)(C)N)CC[C@]4(C)[C@H]3CC[C@]12C [SA152, dihydrochloride] | 98.4
CC(C)CCC[C@@H](C)[C@H]1CC[C@H]2[C@@H]3CC=C4C[C@@H](OC(=O)CN(CCCCCCCCN)C(=O)CCCCN)CC[C@]4(C)[C@H]3CC[C@]12C [SA122, dihydrochloride] | 98.6

Now turn to the next compound.
Dear colleague, please send me the reported % Encapsulation (Ribogreen) for CC[C@H](CC[C@@H](C)[C@H]1CC[C@H]2[C@@H]3CC=C4C[C@@H](OC(=O)N(CCCCNCCC(C)(C)N)CCC(C)(C)N)CC[C@]4(C)[C@H]3CC[C@]12C)C(C)C [SA114, trihydrochloride] when you can. 98.5

====

assay: Diameter and PDI from DLS measurements of mRNA nanoparticles with lipid amines; assay type: physicochemical; conditions: Luciferase mRNA nanoparticle modified with lipid amine
Structures can show the parent of a compound that is named as a salt.
parameter: Diameter (nm)
Write down the numeric answer in nm and omit the unit.

Dear colleague, please send me the reported Diameter (nm) for CC(C)CCC[C@@H](C)[C@H]1CC[C@H]2[C@@H]3CC=C4C[C@@H](SSCCCCC(=O)N(CCCN)CCCCCCCCN)CC[C@]4(C)[C@H]3CC[C@]12C [SA110, dihydrochloride] when you can. 70

Dear colleague, please send me the reported Diameter (nm) for CC(C)CCC[C@@H](C)[C@H]1CC[C@H]2[C@@H]3CC=C4C[C@@H](OC(=O)CCC(=O)N(CCCCCCCC(C)(C)N)CCC(C)(C)N)CC[C@]4(C)[C@H]3CC[C@]12C [SA164, dihydrochloride] when you can. 73

Dear colleague, please send me the reported Diameter (nm) for CC(C)CCC[C@@H](C)[C@H]1CC[C@H]2[C@@H]3CC=C4C[C@@H](SSCCC(=O)N(CCCCNCCC(C)(C)N)CCC(C)(C)N)CC[C@]4(C)[C@H]3CC[C@]12C.Cl.Cl.Cl when you can. 72

Dear colleague, please send me the reported Diameter (nm) for CC(C)CCC[C@@H](C)[C@H]1CC[C@H]2[C@@H]3CC=C4C[C@@H](OC(=O)N(CCCN)CCCCCCCCN)CC[C@]4(C)[C@H]3CC[C@]12C [SA60, dihydrochloride] when you can. 74

Dear colleague, please send me the reported Diameter (nm) for CC[C@H](CC[C@@H](C)[C@H]1CC[C@H]2[C@@H]3CC=C4C[C@@H](OC(=O)N(CCCCCCCC(C)N)CCC(C)N)CC[C@]4(C)[C@H]3CC[C@]12C)C(C)C (some centres unmarked) [SA144, dihydrochloride] when you can. 71

Dear colleague, please send me the reported Diameter (nm) for CC[C@H](CC[C@@H](C)[C@H]1CC[C@H]2[C@@H]3CC=C4C[C@@H](OC(=O)N(CCCCNCC(F)(F)CN)CC(F)(F)CN)CC[C@]4(C)[C@H]3CC[C@]12C)C(C)C [SA116, trihydrochloride] when you can. 73

Dear colleague, please send me the reported Diameter (nm) for CC(C)CCC[C@@H](C)[C@H]1CC[C@H]2[C@@H]3CC=C4C[C@@H](OC(=O)C(=O)N(CCCN)CCCCNCCCN)CC[C@]4(C)[C@H]3CC[C@]12C [SA66, trihydrochloride] when you can. 72

Dear colleague, please send me the reported Diameter (nm) for CC[C@H](CC[C@@H](C)[C@H]1CC[C@H]2[C@@H]3CC=C4C[C@@H](OC(=O)CCC(=O)N(CCCC(C)(C)N)CCC(C)(C)N)CC[C@]4(C)[C@H]3CC[C@]12C)C(C)C [SA167, dihydrochloride] when you can. 75

Origin of measurements: patent US20260109732A1
